Measured IC50 by item
test-system: KRAS G12C (GMPPNP-loaded) and cRAF Ras-binding domain (Homo sapiens, UniProt P01116, C118S/C51S/C80L/G12C)
Construct: truncated version comprising amino acids 1-169
Sequence (P01116 1-169 isoform P01116-2 G12C/C51S/C80L/C118S): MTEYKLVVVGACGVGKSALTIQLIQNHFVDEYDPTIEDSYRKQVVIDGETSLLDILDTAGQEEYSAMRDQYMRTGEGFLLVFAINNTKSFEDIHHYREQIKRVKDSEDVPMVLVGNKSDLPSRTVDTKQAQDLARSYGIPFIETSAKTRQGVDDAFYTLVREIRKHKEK
experiment: Inhibition of KRAS G12C and cRAF binding (AlphaScreen)
conditions: KRAS G12C preloaded with GTP analogue GMPPNP, 2 hours preincubation

Some compounds with recorded IC50:
compound | IC50
C=CC(=O)N1CC[C@@H](N(C)c2nc(OC[C@@]34CCCN3C[C@H](F)C4)nc3c(F)c(-c4cccc5cn[nH]c45)ncc23)C1 | ≥ 500 nM
C=CC(=O)N1CC[C@@H](N(C)c2nc(OCC34CCCN3CCC4)nc3c(F)c(-c4nc(N)cc(C)c4C(F)(F)F)ncc23)C1 | 10 to 100 nM
CN1CC[C@H]1/C=C/C(=O)N1CC[C@@H](N(C)c2nc(OC[C@@]34CCCN3C[C@H](F)C4)nc3c(F)c(-c4nc(N)cc5cccc(F)c45)ncc23)C1 (single isomer, unassigned) [Example 2] | 100 to 500 nM
Cc1noc(/C=C/C(=O)N2CC[C@@H](N(C)c3nc(OC[C@@]45CCCN4C[C@H](F)C5)nc4c(F)c(-c5nc(N)cc6cccc(Cl)c56)ncc34)C2)n1 | < 10 nM
C=CC(=O)N1CC[C@@H](N(C)c2nc(OC[C@@]34CCCN3C[C@H](F)C4)nc3c(F)c(-c4cccc(Cl)c4C4CC4)ncc23)[C@H]1C (single isomer, unassigned) [Example 77] | 100 to 500 nM
CN1CC[C@@H]1/C=C/C(=O)N1CC[C@@H](N(C)c2nc(OC[C@@]34CCCN3C[C@H](F)C4)nc3c(F)c(-c4nc(N)cc5cccc(F)c45)ncc23)C1 [Example 90] | < 10 nM

With those in mind, consider the next compound.
Qu. IC50 for C=CC(=O)N1CC[C@@H](N(C)c2nc(OC[C@@]34CCCN3C[C@H](F)C4)nc3c2CC(C)C(c2nc(N)cc(C)c2C(F)(F)F)C3)C1 (stereo partly shown) [Example 138] ?
Ans. 100 to 500 nM
